tested on: NCI-H2228 parental; test: cell viability relative to vehicle (fraction of vehicle); higher = less growth inhibition; settings: 100 nM; treatment time 6 days
Over roughly 2,800 compounds, “cell viability relative to vehicle” has its median near 1.1; the lowest 2% begin near 0.19. The sample holds the lowest values, similar compounds and a random draw of the others, so the mix is not that of the screen.
MEASURE NAME: cell viability
Number only, please.

Worked set:
>>> assay_result("NC(=O)c1[nH]cnc1N [4-Amino-5-imidazolecarboxamide]")
1.23
>>> assay_result("CC(C)Oc1ccc(C(=O)N[C@H](CNC(=O)CN(C)C)Cc2ccc(-c3cn4cccc([C@H](C)O)c4n3)cc2)cc1Cl")
0.15

[ask] Recorded cell viability for CN1C(=O)C(C)(C)Oc2c(-c3cn(C)c(=O)c4[nH]ccc34)cc(S(C)(=O)=O)cc21 , please?
[reply] 0.935

[ask] Recorded cell viability for Cn1c(=O)c(Oc2ccc(F)cc2F)cc2cnc(NC(CCO)CCO)nc21 , please?
[reply] 1.05

[ask] Recorded cell viability for CC(C)=CCc1cc(-c2coc3cc(O)ccc3c2=O)ccc1O , please?
[reply] 1.17

[ask] Recorded cell viability for NS(=O)(=O)Oc1ccc2c3c(c(=O)oc2c1)CCCCC3 , please?
[reply] 1.04

###

Catalogue of molecules with associated cell viability
test system: NCI-H2228 parental; assay: cell viability relative to vehicle (fraction of vehicle); higher = less growth inhibition; conditions: 100 nM; treatment time 6 days
Over roughly 2,800 compounds, “cell viability relative to vehicle” has its median near 1.1; the lowest 2% begin near 0.19. For the sample, the lowest values were picked, then their nearest neighbours and some compounds at random.

[ask] Recorded cell viability for O=C(NC1CCOCC1)c1ccc(-c2cc(-c3c[nH]nc3-c3ccccn3)ccn2)cc1 , please?
[reply] 1.01

[ask] Recorded cell viability for O=C(NCc1ccc(S(=O)(=O)c2cc(F)cc(F)c2)cc1)c1ccc2nccn2c1 , please?
[reply] 0.117

[ask] Recorded cell viability for Cc1ccc(S(=O)(=O)Cc2nc(-c3ccc(C(=O)NCc4cccnc4)cc3)oc2C)cc1 , please?
[reply] 0.875

[ask] Recorded cell viability for CC(C)C[C@H](NC(=O)CNC(=O)c1cc(Cl)ccc1Cl)B1OC(=O)C(CC(=O)O)(CC(=O)O)O1 , please?
[reply] 0.106

[ask] Recorded cell viability for COc1cc(N2CCC(N3CCN(C)CC3)CC2)ccc1Nc1ncc(Cl)c(Nc2ccccc2S(=O)(=O)C(C)C)n1 , please?
[reply] 0.421

[ask] Recorded cell viability for COCCN1CCN(Cc2ccc(-c3n[nH]c4c3C(=O)c3c(NC(=O)NN5CCOCC5)cccc3-4)cc2)CC1 , please?
[reply] 0.253

[ask] Recorded cell viability for O=C(Nc1c[nH]nc1-c1nc2ccc(CN3CCOCC3)cc2[nH]1)NC1CC1 , please?
[reply] 0.106

[ask] Recorded cell viability for CCCC(C)NC(=O)c1ccc(Cl)c(Cl)c1 (centres undefined) , please?
[reply] 1.06

[ask] Recorded cell viability for C[C@H](NC(=O)CNC(=O)c1cccc(Cl)c1)c1ccccc1 , please?
[reply] 1.09

###

tested on: NCI-H2228 parental; experiment: cell viability relative to vehicle (fraction of vehicle); NCI-H2228 is an ALK-positive lung cancer line and DTP means drug-tolerant persister; higher = less growth inhibition; conditions: 100 nM; treatment time 6 days
Counter-ions that a name gives are not always drawn. The full ranking holds about 2,800 compounds; the median of “cell viability relative to vehicle” is about 1.1, and the lowest 2% start at about 0.19. This is one part of a sample in which the lowest values are shown more often than they occur.
MEASURE NAME: cell viability
Number only, please.

Worked set:
>>> assay_result("COc1ccc(/C=C/c2cc(O)cc(O[C@@H]3O[C@H](CO)[C@@H](O)[C@H](O)[C@H]3O)c2)cc1O")
1.11
>>> assay_result("O=C1c2cccc(O)c2C(=O)c2c(O)cccc21")
1.06
>>> assay_result("C[C@@]1(CO)C[C@@H](O)C[C@@]2(C)[C@@H]3CC[C@](C)([C@@H](O)CO)C=C3CC[C@H]12")
1.1
>>> assay_result("COCCNc1cc(NC(=O)N2CCCc3cc(CN4CCN(C)CC4=O)c(C=O)nc32)ncc1C#N")
1.13

Please find the next molecule below.
[ask] Recorded cell viability for Fc1ccc(-n2cc(CCCCN3CCC4(CC3)OCc3ccccc34)c3ccccc32)cc1 [Siramesine hydrochloride] , please?
[reply] 1.13
